// provenance: patent US12319655B2

biological target: B-Raf kinase (SEQ. ID NO: 2) (Homo sapiens (Human)); test: Biochemical Assay for B-Raf (1); details: Table J, assay version (1); read-out: BRAF (1) IC50
Sequence (P15056 416-766): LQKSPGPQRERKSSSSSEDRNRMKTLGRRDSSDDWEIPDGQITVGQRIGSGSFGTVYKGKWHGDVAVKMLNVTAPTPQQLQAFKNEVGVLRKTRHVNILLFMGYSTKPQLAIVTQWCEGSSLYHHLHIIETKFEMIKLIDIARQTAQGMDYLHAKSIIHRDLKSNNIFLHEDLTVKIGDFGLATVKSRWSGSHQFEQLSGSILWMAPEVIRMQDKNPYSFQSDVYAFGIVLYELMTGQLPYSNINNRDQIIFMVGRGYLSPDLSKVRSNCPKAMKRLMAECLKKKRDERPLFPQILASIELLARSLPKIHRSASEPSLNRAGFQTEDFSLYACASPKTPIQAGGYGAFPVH
List of IC50 values.
ENDPOINT NAME: IC50

CC(=O)Nc1cc(-c2cncc(-c3cc(NC(=O)c4ccnc(C(C)(C)C#N)c4)ccc3C)n2)ccn1 [Example 140] | ≤ 100 nM
Cc1cc(-c2cc(NC(=O)c3ccnc(C(F)(F)F)c3)ccc2F)cc(-c2ccnc(NC(=O)C3CC3)c2)n1 [Example 72] | ≤ 100 nM
Cc1ccc(NC(=O)C2CCOC2)cc1-c1cccc(-c2cc(NC(=O)C3CC3)ncn2)c1 (stereo not shown) [Example 345] | 1000 to 10000 nM
Cc1ccc(NC(=O)c2ccnc(S(C)(=O)=O)c2)cc1-c1cc(-c2ccnc(NC(=O)C3CC3)c2)cnn1 [Example 332] | ≤ 100 nM
